# MEASURED_TARGET: T1, recombinant human GPC3 protein (human, UniProt P51654 25-563)
# T1 construct: also called human GPC3 full-length protein; recombinant GPC3 protein
# ASSAY_EXPLANATION: BLI (Octet), antibody on Protein A probe
OBSERVED_PROPERTY: pKd
Note on pKd: it is the negative log10 of concentration, concentration in mol/L.

BINDER	pKd
5D6 (antibody, V domains shown, Chimeric IgG: murine variable regions on human IgG1 CH1-CH3 and an antibody light chain constant region) VH: QVQLQQSGAELVRPGASVKLSCKALGYTFADYEIHWVKQTPVHGLEWIGAIHPGSGGTAYNQTFEGKATLTADKSSTTAYMELSSLTSEDSAVYYCTRYYSFAYWGQGTLVTVSA VL: DVLMTQTPLSLPVSLGDQASISCRSSQSLVHSNGNTYLHWYLQKPGQSPKLLIYKVSNRFSGVPDRFSGSGSGTDFTLKISRVEAEDLGVYFCSQSTHVPLTFGAGTKLELK	7.56
19F1 (antibody, V domains shown, Chimeric human IgG1) VH: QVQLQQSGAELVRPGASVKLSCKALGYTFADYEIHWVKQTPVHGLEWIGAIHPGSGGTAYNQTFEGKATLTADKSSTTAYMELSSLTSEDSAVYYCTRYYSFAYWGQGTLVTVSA VL: DVLMTQTPLSLPVSLGDQASISCRSSQSLVHSNGNTYLHWYLQKPGQSPKLLIYKVSNRFSGVPDRFSGSGSGTDFTLKISRVEAEDLGVYFCSQSTHIPTFGGGTKLELK	7.74
41F1 (antibody, V domains shown, Chimeric human IgG1) VH: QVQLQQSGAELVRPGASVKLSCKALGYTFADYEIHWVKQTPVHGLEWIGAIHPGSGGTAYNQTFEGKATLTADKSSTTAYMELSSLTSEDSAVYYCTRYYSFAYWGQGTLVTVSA VL: DVLMTQTPLSLPVSLGDQASISCRSSQSLVHSNGNTYLHWYLQKPGQSPKLLIYKVSNRFSGVPDRFSGSGSGTDFTLKISRVEAEDLGVYFCSQNTHVPLTFGAGTKLELK	7.73
47B6 (antibody, V domains shown, Chimeric human IgG1) VH: QVQLQQSGAELMKPGASVKISCKATGYTFSSYWIEWVKQRPGHGLEWIGEILPGSGSTNYNEKFKGKATFTADTSSNTAYMQLSSLTSEDSAVYYCARGYWGQGTLVTVSA VL: DIVMTQAPLSLPVSLGDQASISCRSSQSLVHSNGNTYLHWYLQKPGQSPKLLIYKVSNRFSGVPDRFSGSGSGTDFTLKISRVEAEDLGVYFCSQSTHVPRTFGGGTKLEIK	7.32

Turning now to a further record.
Value of measured pKd for the entry 30A4 (antibody, V domains shown, Chimeric human IgG1) VH: QVQLQQSGAELVRPGASVKLSCKALGYAFADYEIHWVKQTPVHGLEWIGAIHPGSGGTAYNQTFKGKATLTADKSSTTAYMELSSLTSEDSAVYYCTRYYSFAYWGQGTLVTVSA VL: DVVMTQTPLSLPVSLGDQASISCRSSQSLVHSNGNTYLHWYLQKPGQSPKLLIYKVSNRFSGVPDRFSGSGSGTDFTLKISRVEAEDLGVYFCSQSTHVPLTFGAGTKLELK : 7.70
